target: Ubiquitin carboxyl-terminal hydrolase 1 (Homo sapiens) (UniProt O94782); assay: Inhibitors of USP1/UAF1: Pilot qHTS (AID 504865); conditions: purified USP1/UAF1, Ub-rhodamine cleavage fluorescence; series mostly up to 114 µM; note: nearly all actives have a fitted effect of over 35% in size
Sequence (O94782 whole entry, looked up): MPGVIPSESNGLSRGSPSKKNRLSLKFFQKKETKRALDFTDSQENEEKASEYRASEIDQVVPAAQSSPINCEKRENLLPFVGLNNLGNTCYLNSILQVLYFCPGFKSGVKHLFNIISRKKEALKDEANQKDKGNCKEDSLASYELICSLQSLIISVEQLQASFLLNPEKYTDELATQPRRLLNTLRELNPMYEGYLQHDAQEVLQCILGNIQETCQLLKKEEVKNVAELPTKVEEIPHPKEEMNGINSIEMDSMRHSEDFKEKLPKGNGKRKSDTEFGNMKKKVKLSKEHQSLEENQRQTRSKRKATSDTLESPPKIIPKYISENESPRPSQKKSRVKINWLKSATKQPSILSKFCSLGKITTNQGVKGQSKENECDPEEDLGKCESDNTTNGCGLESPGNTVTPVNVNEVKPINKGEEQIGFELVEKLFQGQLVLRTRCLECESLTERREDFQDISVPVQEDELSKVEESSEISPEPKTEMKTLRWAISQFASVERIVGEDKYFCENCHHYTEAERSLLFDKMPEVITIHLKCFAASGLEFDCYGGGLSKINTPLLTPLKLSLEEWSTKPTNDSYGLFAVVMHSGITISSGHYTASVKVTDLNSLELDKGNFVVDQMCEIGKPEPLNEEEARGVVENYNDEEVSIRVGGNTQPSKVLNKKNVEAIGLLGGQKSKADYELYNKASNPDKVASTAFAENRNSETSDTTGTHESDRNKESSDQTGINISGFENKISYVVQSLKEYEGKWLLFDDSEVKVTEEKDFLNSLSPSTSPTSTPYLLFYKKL
Inconclusive results are not listed. The source made the active and inactive calls. Calls come from the whole dose curve; as a rule, active = well fitted inhibition curve with a large enough effect; inconclusive = small, poorly fitted or top-dose-only effect; inactive = flat fitted curve, though single readings scatter.
Possible outcomes: active, inactive

Compound: C[C@@H]1O[C@@H](O[C@H]2C[C@@H](O)[C@]3(CO)[C@@H]4C(CC[C@]3(O)C2)[C@@]2(O)CC[C@H]([C@@H]3COC(=O)C3)[C@@]2(C)C[C@H]4O)[C@H](O)[C@H](O)[C@H]1O (stereo partly specified)
Assigned class: inactive

Compound: Oc1cccc[c]1[Hg][Cl]
Assigned class: active

Compound: O[C@H]1[C@H]2[C@H](O)CCCN2C[C@H]1O
Assigned class: inactive

Compound: CNc1ccc2oc(C[C@H]3O[C@@]4(CC[C@H]3C)O[C@H]([C@H](C)C(=O)c3ccc[nH]3)[C@H](C)C[C@H]4C)nc2c1C(=O)O
Assigned class: inactive

Compound: OC1CCCCC1N1CCC(c2ccccc2)CC1 (stereo unspecified)
Assigned class: inactive

Compound: c1ccc2c(N3CCNCC3)cccc2c1
Assigned class: inactive

Compound: CN1CCC(c2c[nH]c3ccc(O)cc23)CC1
Assigned class: inactive

Compound: CCC1(c2ccccc2)C(=O)NC(=O)NC1=O
Assigned class: inactive

Compound: Oc1cc(Cl)c(Cl)cc1Cl
Assigned class: inactive

Compound: NCC(CP(=O)(O)O)c1ccc(Cl)cc1 (stereo unspecified)
Assigned class: inactive

Compound: O=CC=O
Assigned class: inactive

Compound: CCCN1CC[C@@H]2c3cc(O)ccc3CC[C@@H]21
Assigned class: inactive

Compound: NCCc1c[nH]c2ccc(C(N)=O)cc12
Assigned class: inactive

Compound: ClC1C(Cl)C(Cl)C(Cl)C(Cl)C1Cl (stereo unspecified)
Assigned class: inactive

Compound: CC(=O)OO
Assigned class: inactive

Compound: CN1[C@@H]2CC[C@H]1CC(OC1c3ccccc3CCc3ccccc31)C2 (stereo partly specified)
Assigned class: inactive

Compound: NCC(O)c1cc(O)c(O)cc1F (stereo unspecified)
Assigned class: inactive

Compound: C[C@]12CCC(=O)C[C@@H]1CC[C@@H]1[C@@H]2CC[C@]2(C)[C@@H](O)CC[C@@H]12
Assigned class: inactive

Compound: NC(Cc1cc(O)c(O)cc1O)C(=O)O (stereo unspecified)
Assigned class: active

Compound: Clc1ccccc1Cl
Assigned class: inactive

Compound: O=c1c2ccccc2[se]n1-c1ccccc1
Assigned class: inactive

Compound: O=C1C=CC(=O)C=C1
Assigned class: inactive

Compound: NC(CCCCCP(=O)(O)O)C(=O)O (stereo unspecified)
Assigned class: inactive

Compound: N[C@@]1(C(=O)O)CC[C@@H](C(=O)O)C1
Assigned class: inactive

Compound: CCCCCl
Assigned class: inactive

Compound: COC1=CC=C2[C@H]3Cc4ccc(OC)c5c4[C@@]2(CCN3C)[C@H]1O5
Assigned class: inactive

----------
tested on: CP260; assay: qHTS profiling for inhibitors of Plasmodium falciparum proliferation (AID 504749); note: nearly all actives have a fitted effect of over 60% in size; conditions: P. falciparum in erythrocytes, SYBR Green DNA, 72 h; series mostly up to 28.7 µM
Results filed as inconclusive are left out. Activity calls are given as the source filed them. Calls follow the shape of the dose curve; as a rule, active = well fitted inhibition curve with a large enough effect; inconclusive = small, poorly fitted or top-dose-only effect; inactive = flat fitted curve, though single readings scatter.
Possible outcomes: 1 (active), 0 (inactive)

Compound: C=CCN1CC[C@]23c4c5ccc(O)c4O[C@H]2[C@@H](O)C=C[C@H]3[C@H]1C5
Assigned class: 0

Compound: N#CC(C#N)=Cc1cc(O)c(O)c(O)c1
Assigned class: 1

Compound: CN1c2ccccc2C(NCCCCCCC(=O)O)c2ccc(Cl)cc2S1(=O)=O (configuration not stated)
Assigned class: 0

Compound: CNC1(c2ccccc2Cl)CCCCC1=O (configuration not stated)
Assigned class: 0

Compound: COc1ccc2c3c1O[C@H]1C(=O)CC[C@H]4[C@@H](C2)N(C)CC[C@]314
Assigned class: 0

Compound: ClCC1CO1 (configuration not stated)
Assigned class: 0

Compound: CCC1(c2ccccc2)C(=O)NC(=O)N(C(=O)c2ccccc2)C1=O (configuration not stated)
Assigned class: 0

Compound: O=[N+]([O-])C(Br)(CO)CO
Assigned class: 0

Compound: O=[N+]([O-])c1ccc(F)c([N+](=O)[O-])c1
Assigned class: 0

Compound: O=C1CCCCC1CN1CCCCC1 (configuration not stated)
Assigned class: 0

Compound: C/C(=C\c1csc(C)n1)[C@@H]1C[C@@H]2O[C@]2(C)CCC[C@H](C)[C@H](O)[C@@H](C)C(=O)C(C)(C)[C@@H](O)CC(=O)O1
Assigned class: 1

Compound: Oc1cc(Cl)c(Cl)cc1Cl
Assigned class: 0

Compound: O=C(O)C(Cl)(Cl)Cl
Assigned class: 0

Compound: CCCCCl
Assigned class: 0

Compound: Cc1sc2ccccc2c1CC1=NCCN1
Assigned class: 0

Compound: O=S(=O)(O)c1cc(O)ccc1O
Assigned class: 0

Compound: C[N+]1(C)C2CCC1CC(OC(=O)c1c[nH]c3ccccc13)C2 (configuration not stated)
Assigned class: 0

Compound: CCC1(C)CC(=O)NC(=O)C1
Assigned class: 0

Compound: Oc1cccc[c]1[Hg][Cl]
Assigned class: 1

Compound: F/C(COc1ccc2c(c1)[nH]c1ccccc12)=C1/CN2CCC1CC2
Assigned class: 1

Compound: NCC(O)c1cccc(O)c1 (configuration not stated)
Assigned class: 0

Compound: C=CCN=C=S
Assigned class: 0

----------
assay: Stat Signaling Pathway (AID 446); details: ME-180 (cervical carcinoma) SIE beta-lactamase reporter, IL-6 stimulated, 5 h; at 38 µM (top of the series) unless noted;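 note: ME-180 cervical cancer cells given 40 pM IL-6 alongside compound; SIE-controlled beta-lactamase reporter measured as 460/530 nm FRET emission ratio; % is set by controls: 0 for no effect and ±100 for the full control effect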
Inconclusive results are not listed. Activity calls are given as the source filed them. Calls come from the whole dose curve; as a rule, active = well fitted curve in either direction with a large enough effect (not every such curve was filed as active); inconclusive = small, poorly fitted or top-dose-only effect, or another doubt; inactive = flat fitted curve, though single readings scatter.
activity, negative = inhibition values for the molecules below.

Structure smiles: C[N+](C)(C)CC#CCOC(=O)Nc1cccc(Cl)c1
activity, negative = inhibition: -8.8% (inactive)
--
Structure smiles: Cc1[nH]c2ccc(O)cc2c1CCN
activity, negative = inhibition: 6.41% (inactive)
--
Structure smiles: O=C(O)c1cc[c]([Hg][Cl])cc1
activity, negative = inhibition: -0.208% (inactive)
--
Structure smiles: CCCN(CCC)[C@@H]1CCc2cccc(O)c2C1
activity, negative = inhibition: -0.802% (inactive)
--
Structure smiles: COc1ccc2[nH]c3c(c2c1)CCNC3
activity, negative = inhibition: 9.97% (inactive)
--
Structure smiles: NC(N)=NOCC[C@H](N)C(=O)O
activity, negative = inhibition: 4.59% [at 17.2 µM] (inactive)

----------
experiment: MultiTox-Fluor Cytotoxicity Assay - LYMP1-001 - Dead Cells (AID 946); details: LYMP1-001 lymphoblastoid cells, dead-cell protease fluorescence; series mostly up to 92.2 µM;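 note: cells exposed to compound for 16 h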
Inconclusive results are not listed. The source made the active and inactive calls. Calls come from the whole dose curve; as a rule, active = well fitted cell-killing curve with a large enough effect; inconclusive = small, poorly fitted or top-dose-only effect, or effect the other way; inactive = flat fitted curve, though single readings scatter.
Possible outcomes: active, inactive

Compound: C[C@H]1CCC[C@H](O)CCCCCc2cc(O)cc(O)c2C(=O)O1
Assigned class: inactive

Compound: O=C1CCO1
Assigned class: inactive

Compound: [O]=[Cr](=[O])([OH])[O][Cr](=[O])(=[O])[OH]
Assigned class: inactive

Compound: ClCC1CO1 (configuration not stated)
Assigned class: inactive

Compound: O=CC=O
Assigned class: inactive

Compound: O=C1C2CC=CCC2C(=O)N1SC(Cl)(Cl)Cl (configuration not stated)
Assigned class: active

Compound: O=[N+]([O-])c1ccc(F)c([N+](=O)[O-])c1
Assigned class: inactive

----------
target: Luciferin 4-monooxygenase (Photinus pyralis); test: Biochemical firefly luciferase enzyme assay for NPC (AID 624030); note: nearly all actives have a fitted effect of over 70% in size; conditions: purified P. pyralis luciferase, luminescence, 5 min; series mostly up to 58.6 µM
Results filed as inconclusive are left out. The source made the active and inactive calls. The call rests on the fitted dose curve; in most records, active means well fitted inhibition curve with a large enough effect; inconclusive means small, poorly fitted or top-dose-only effect; inactive means flat fitted curve, though single readings scatter.
Possible outcomes: active, inactive

Compound: [N-]=[N+]=CC(=O)OCC(N)C(=O)O (stereo not given)
System: Luciferin 4-monooxygenase (Photinus pyralis)
Assigned class: inactive
--
Compound: O=c1[nH]cc(N(CCCl)CCCl)c(=O)[nH]1
System: Luciferin 4-monooxygenase (Photinus pyralis)
Assigned class: inactive
--
Compound: CCC(N)Cc1c[nH]c2ccccc12 (stereo not given)
System: Luciferin 4-monooxygenase (Photinus pyralis)
Assigned class: inactive
--
Compound: CCC1(CC)C(=O)NC(=O)N(C)C1=O
System: Luciferin 4-monooxygenase (Photinus pyralis)
Assigned class: inactive
--
Compound: C[C@H]1CCC[C@H](O)CCCCCc2cc(O)cc(O)c2C(=O)O1
System: Luciferin 4-monooxygenase (Photinus pyralis)
Assigned class: inactive
--
Compound: CNC(=O)Oc1ccccc1C(=O)Nc1ccccc1
System: Luciferin 4-monooxygenase (Photinus pyralis)
Assigned class: active
--
Compound: CCC1(c2ccccc2)C(=O)NC(=O)NC1=O
System: Luciferin 4-monooxygenase (Photinus pyralis)
Assigned class: inactive
--
Compound: CCC(C)(S(=O)(=O)CC)S(=O)(=O)CC
System: Luciferin 4-monooxygenase (Photinus pyralis)
Assigned class: inactive
--
Compound: CCCCCl
System: Luciferin 4-monooxygenase (Photinus pyralis)
Assigned class: inactive
--
Compound: CC(C)(C)c1cc(O)ccc1O
System: Luciferin 4-monooxygenase (Photinus pyralis)
Assigned class: inactive
--
Compound: C=CCN1CC[C@]23c4c5ccc(O)c4O[C@H]2[C@@H](O)C=C[C@H]3[C@H]1C5
System: Luciferin 4-monooxygenase (Photinus pyralis)
Assigned class: inactive
--
Compound: CCCCCCCCOC(=O)c1ccccc1C(=O)OCCCCCCCC
System: Luciferin 4-monooxygenase (Photinus pyralis)
Assigned class: inactive
--
Compound: C/C(=C\c1csc(C)n1)[C@@H]1C[C@@H]2O[C@]2(C)CCC[C@H](C)[C@H](O)[C@@H](C)C(=O)C(C)(C)[C@@H](O)CC(=O)O1
System: Luciferin 4-monooxygenase (Photinus pyralis)
Assigned class: inactive
--
Compound: CCC1(c2ccccc2)C(=O)NC(=O)N(C)C1=O (stereo not given)
System: Luciferin 4-monooxygenase (Photinus pyralis)
Assigned class: inactive
--
Compound: COCC(C)N(C(=O)CCl)c1c(C)csc1C (stereo not given)
System: Luciferin 4-monooxygenase (Photinus pyralis)
Assigned class: inactive
--
Compound: c1ccc(C2(N3CCCC3)CCCCC2)cc1
System: Luciferin 4-monooxygenase (Photinus pyralis)
Assigned class: inactive
--
Compound: OC(c1ccccc1)(c1ccccc1)C1CN2CCC1CC2 (stereo not given)
System: Luciferin 4-monooxygenase (Photinus pyralis)
Assigned class: inactive
--
Compound: Clc1ccc(Cl)cc1
System: Luciferin 4-monooxygenase (Photinus pyralis)
Assigned class: inactive
--
Compound: c1csc(C2(N3CCCCC3)CCCCC2)c1
System: Luciferin 4-monooxygenase (Photinus pyralis)
Assigned class: inactive
--
Compound: CCC1(c2ccccc2)C(=O)NC(=O)N(C(=O)c2ccccc2)C1=O (stereo not given)
System: Luciferin 4-monooxygenase (Photinus pyralis)
Assigned class: inactive
--
Compound: O=P(O)(O)C(Cl)(Cl)P(=O)(O)O
System: Luciferin 4-monooxygenase (Photinus pyralis)
Assigned class: inactive
--
Compound: CC[N+](C)(CC)CCOC(=O)C(O)(c1ccccc1)c1ccccc1
System: Luciferin 4-monooxygenase (Photinus pyralis)
Assigned class: inactive
--
Compound: CN1CCCC(=C(c2cccs2)c2cccs2)C1
System: Luciferin 4-monooxygenase (Photinus pyralis)
Assigned class: inactive
--
Compound: CC(C)[C@@]1(NC(=O)[C@@H]2C[C@@H]3c4cccc5[nH]cc(c45)C[C@H]3N(C)C2)O[C@@]2(O)[C@@H]3CCCN3C(=O)[C@H](Cc3ccccc3)N2C1=O
System: Luciferin 4-monooxygenase (Photinus pyralis)
Assigned class: inactive
--
Compound: CCCC(C)C1(CC)C(=O)NC(=O)NC1=O (stereo not given)
System: Luciferin 4-monooxygenase (Photinus pyralis)
Assigned class: inactive

Recorded values, source PubChem BioAssay (NCATS).
